Biological target: T1, ARHGEF11, O15085
T1 sequence (O15085 42-136, limits assumed, looked up): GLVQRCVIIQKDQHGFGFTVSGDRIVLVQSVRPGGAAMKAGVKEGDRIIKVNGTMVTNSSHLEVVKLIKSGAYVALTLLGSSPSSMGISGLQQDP
Experiment: holdup assay
Set-up: key: below the threshold = too weak to quantify, mostly under pKd 3.1 to 4
Conditions: plain residues with an end cap or a label only (N-terminal biotin on a linker: ado-ado)
endpoint.name: pKd

• DDPSTAETVL [ABCA7, Q8IZY2] = 3.98
• DTTVPESEDL [MYOZ2, Q9NPC6] = 3.7
• TACCHSETVV [TGFA, P01135] = 4.44
